Tested on: Plasmodium berghei
procedure-text: Screen against P. berghei liver stage (PbLuc), transformed with Luciferase, at 10uM
Type: functional, HepG2
measurement-setup: tested at 10 uM
Among all 69,000 compounds or so, about 8,600 (12%) showed an effect of 50% or more. Only a selection was taken, and strong results are over-represented in it overall.
Think of 20% as a floor: if INHIBITION stands on it or above, it is 1; beneath it, 0.

Record excerpt, results attached:
>>> label_class("CN(Cc1ccccc1)c1ccc(C(F)(F)F)cn1")
1
>>> label_class("CC(C)c1nc(C2CCCN2Cc2ccncc2Cl)no1 (centres undefined)")
1
>>> label_class("CCC(CC)C(=O)c1c[nH]c(C(=O)N2CCN(c3ccccc3)CC2)c1")
0
>>> label_class("CN(Cc1ccc(C(N)=O)cc1)c1ccc(C(F)(F)F)cn1")
0
>>> label_class("CCCN(Cc1ccc(OC)nc1)Cc1ccccc1OC")
1

Challenge: Dear colleague, could you confirm whether Cc1ccc(-n2cc(C(=O)NCC(C)Cn3cccn3)nn2)cc1 (centres undefined) has INHIBITION at or above 20%?
Response given: 1

Challenge: Please check the record CN(Cc1ccc([S+](C)[O-])cc1)c1ccc(Br)cn1 (centres undefined) and state if its INHIBITION is at or above 20%.
Response given: 1

Challenge: I'd appreciate it if you could say whether COc1ccc(OCC(=O)NS(=O)(=O)c2ccc(Br)s2)cc1 has INHIBITION at least equal to 20%.
Response given: 1

Challenge: Assess whether reported INHIBITION for COc1cccc(OCC(=O)NS(=O)(=O)c2ccc(Br)s2)c1 sits at 20% or higher.
Response given: 0

Challenge: Record CC1=Nc2c(c(=O)[nH]n2C(C)C)C(c2ccc(F)c(F)c2)S1 (centres undefined) ; criterion: INHIBITION no lower than 20%. Met?
Response given: 0

Challenge: Kindly determine if INHIBITION recorded for O=S(=O)(NC1CCCOC1)c1ccc(C(F)(F)F)nc1 (centres undefined) is above or exactly 20%.
Response given: 1

Challenge: Kindly determine if INHIBITION recorded for CNC(=O)c1ccc(CN(C)c2ccc(C(F)(F)F)cn2)cc1 is above or exactly 20%.
Response given: 1

Challenge: Hi, just wondering whether COc1cc(NCc2c(C)noc2C)c(OC)cc1Cl shows INHIBITION of 20% or higher.
Response given: 1

###

System: Plasmodium berghei
procedure-text: Screen against P. berghei liver stage (PbLuc), transformed with Luciferase, at 10uM
Format: functional, HepG2
measurement-setup: tested at 10 uM
Screen size: about 69,000 compounds; about 8,600 (12%) showed an effect of 50% or more. This is one part of a sample in which strong results are shown more often than they occur.
Below is a list of entries, each paired with its recorded INHIBITION value.
Value expressed in %; do not type the unit.

>>> result_value("CCN(CC)C(=O)CCNC(=O)N(C)Cc1ccc(SC)c(OC)c1")
8.97
>>> result_value("Cc1nc(C)n(C2CCCN(C(=O)c3csc(C(C)C)n3)C2)n1 (configuration not stated)")
40.3

Per the record, CCNC(=O)N(C)Cc1ccc(SC)c(OC)c1 has INHIBITION of 55.1

// INHIBITION value for CCOCCCNC(=O)N(C)Cc1ccc(SC)c(OC)c1 : 12.6

Lab note: CC(=O)Nc1nc(C(=O)N2CCCC(n3ccnc3)C2)cs1 (configuration not stated) gave INHIBITION of 31.9

Value of INHIBITION reported for the compound Cc1nc(C)n(C2CCCN(C(=O)c3csc(C)n3)C2)n1 (configuration not stated) is 14.4

Looking up Cc1nc(C(=O)N2CCCC(n3cncn3)C2)cs1 (configuration not stated) , I found its INHIBITION recorded as 31.1

###

Tested on: Plasmodium berghei
procedure-text: Screen against P. berghei liver stage (PbLuc), transformed with Luciferase, at 10uM
Type: functional, HepG2
measurement-setup: tested at 10 uM
About 8,600 (12%) of roughly 69,000 compounds showed an effect of 50% or more. The sample holds strong results, similar compounds and a random draw of the others, so the mix is not that of the screen.
So basically: INHIBITION at 20% or higher? That is true. Lower than 20%? That is false.

Record excerpt, results attached:
>>> label_class("Cc1cccc(C(=O)N2C[C@@H]3CC[C@H](Oc4cccc(F)c4)[C@@H]3C2)n1")
"true"
>>> label_class("NC(=O)c1ccc(NC2CCOC3(CCCC3)C2)nn1 (centres undefined)")
"false"
>>> label_class("O=C(c1ccc(Cn2cc(Br)cn2)cc1)N1CCOCC1")
"true"
>>> label_class("C[C@@H]1CN(Cc2nc(C(N)=O)no2)CC[C@@]1(O)C1CCOCC1")
"true"
>>> label_class("CCCc1nc(NCCCn2cccn2)c2c(n1)c(C)nn2CC")
"true"
>>> label_class("CNC(=O)[C@@]12CCO[C@@H]1CCN(S(=O)(=O)c1ccccc1F)C2")
"true"

Challenge: Hi team, for CN(C)C[C@@H]1CN(C(=O)CCC2CCCC2)C[C@@H]1CO , is the recorded INHIBITION at or above 20%?
Response given: true

Challenge: Entry CNc1cc(CNC(=O)c2ccnc(OC)c2)nc(-c2ccncc2)n1 : is its INHIBITION no less than 20%?
Response given: true

Challenge: Has C[C@@H]1CN(Cc2cc(C3CCCCC3)no2)CC[C@@]1(O)C1CC1 a recorded INHIBITION greater than or equal to 20%?
Response given: true

###

Tested on: Plasmodium berghei
procedure-text: Screen against P. berghei liver stage (PbLuc), transformed with Luciferase, at 10uM
Assay type: functional, HepG2
measurement-setup: tested at 10 uM
Out of some 69,000 compounds screened, about 8,600 (12%) showed an effect of 50% or more. Many of the other results were omitted from the sample, so strong results are more common in it than they were.
hey, just use criterion met if measured INHIBITION is less than 20%, otherwise criterion not met

>>> label_class("Cc1ccc(C(=O)N2CCC3(CCCC3)CC2)c(=O)[nH]1")
"criterion not met"
>>> label_class("Cc1ccc(C(=O)N2CCC3(CCCCC3)C2)c(=O)[nH]1")
"criterion not met"
>>> label_class("Cc1ccsc1CN(Cc1nc2c(cnn2C)c(=O)[nH]1)C(C)C")
"criterion not met"

Challenge: Is it true that INHIBITION reported for COCCCC1(CO)CCCN(C(=O)c2cnc3c(c2)CCCC3)C1 (centres undefined) is less than 20%?
Response given: criterion not met

Challenge: Here's an entry: CCC(O)Cn1cc(C2=CCN(Cc3cc(O)nc(C)n3)CC2)cn1 (centres undefined) . Is its INHIBITION below 20%?
Response given: criterion not met

Challenge: Determine if CC(C)c1cc(C(=O)N2CCCC3(CCNC3)C2)no1 (centres undefined) shows INHIBITION strictly lower than 20%.
Response given: criterion not met

Challenge: Regarding CNC(=O)C1CCN(C(=O)NCCc2ccc(Cl)s2)CC1 , kindly confirm whether its INHIBITION is beneath 20%.
Response given: criterion not met

Challenge: Hello, I'm reviewing records and need to know if INHIBITION of COc1ccccc1-c1ccnc2nc(N3CCCCC3)[nH]c(=O)c12 is below 20%. Could you check?
Response given: criterion not met

Challenge: # strict comparison: is reported INHIBITION < 20%? input = CC(C)c1nnc2ccc(N3CCCC(C(=O)Nc4nccs4)C3)nn12 (centres undefined)
Response given: criterion not met

Challenge: For CC(C)c1cc(C(=O)N2CCOC3(CCCC3)C2)no1 , is the recorded INHIBITION below the cut-off of 20%?
Response given: criterion not met

Challenge: Determine whether this molecule shows INHIBITION lower than 20% (ties excluded): c1cncc(C2COC3(CCN(Cc4nccs4)CC3)C2)c1 (centres undefined)
Response given: criterion not met

Challenge: For this molecule, is INHIBITION lower than 20%? COc1ccccc1CCNC(=O)NCC(=O)Nc1cccnc1
Response given: criterion met

Challenge: Input CCOCCCNC(=O)C(C)n1cc(Br)cn1 (centres undefined) ; condition: INHIBITION strictly below 20%. Does it hold?
Response given: criterion met

Challenge: Please let me know if Cc1ccc2c(c1)SCC(=O)N2CC(=O)N1CCC[C@H]1c1nc(C)no1 shows INHIBITION below 20%.
Response given: criterion not met

Challenge: Field: below-cutoff. Rule: recorded INHIBITION strictly less than 20%. Subject: CN1CCCC1CNC(=O)CCCOc1ccc(Cl)cc1 (centres undefined)
Response given: criterion not met

Challenge: INHIBITION strictly < 20% for this molecule? COc1ccccc1CNC(=O)CNc1ccccc1C(C)=O
Response given: criterion met

Challenge: Please determine if COc1ccc(C(=O)CCc2nc(C3CC3)no2)cc1 is below 20% in terms of INHIBITION.
Response given: criterion met

Challenge: I wonder whether CCc1nnc(Nc2cc(C)nc(C3CCN(c4cnccn4)C3)n2)s1 (centres undefined) has INHIBITION below 20%. Can you tell?
Response given: criterion not met

Challenge: State whether 20% exceeds INHIBITION recorded for Cc1ccc2c(c1)SCC(=O)N2CC(=O)N1CCCC1c1cc(C)no1 (centres undefined) .
Response given: criterion met

Challenge: Please determine if CN1CC2(CCN(Cc3ccoc3)CC2)COc2ccccc2S1(=O)=O is below 20% in terms of INHIBITION.
Response given: criterion met

Challenge: Please let me know if CC(C)(C)C(=O)NCC(=O)Nc1cccnc1 shows INHIBITION below 20%.
Response given: criterion not met

Challenge: is_below(INHIBITION, 20%) for COC(=O)[C@H](C)NC(=O)c1cc(-c2cccc(Cl)c2)no1 ?
Response given: criterion met

Challenge: Threshold test, INHIBITION < 20%: CC(C)c1nnc2ccc(N3CCC(C(=O)Nc4nccs4)CC3)nn12
Response given: criterion not met

Measured values drawn from ChEMBL document CHEMBL4513216 for this set.
